Recorded IC50 values for a group of compounds are listed next.
# EXPERIMENTAL_TARGET: Epidermal growth factor receptor (Homo sapiens, UniProt P00533)
# Sequence (P00533 whole entry, the tested form may be a part): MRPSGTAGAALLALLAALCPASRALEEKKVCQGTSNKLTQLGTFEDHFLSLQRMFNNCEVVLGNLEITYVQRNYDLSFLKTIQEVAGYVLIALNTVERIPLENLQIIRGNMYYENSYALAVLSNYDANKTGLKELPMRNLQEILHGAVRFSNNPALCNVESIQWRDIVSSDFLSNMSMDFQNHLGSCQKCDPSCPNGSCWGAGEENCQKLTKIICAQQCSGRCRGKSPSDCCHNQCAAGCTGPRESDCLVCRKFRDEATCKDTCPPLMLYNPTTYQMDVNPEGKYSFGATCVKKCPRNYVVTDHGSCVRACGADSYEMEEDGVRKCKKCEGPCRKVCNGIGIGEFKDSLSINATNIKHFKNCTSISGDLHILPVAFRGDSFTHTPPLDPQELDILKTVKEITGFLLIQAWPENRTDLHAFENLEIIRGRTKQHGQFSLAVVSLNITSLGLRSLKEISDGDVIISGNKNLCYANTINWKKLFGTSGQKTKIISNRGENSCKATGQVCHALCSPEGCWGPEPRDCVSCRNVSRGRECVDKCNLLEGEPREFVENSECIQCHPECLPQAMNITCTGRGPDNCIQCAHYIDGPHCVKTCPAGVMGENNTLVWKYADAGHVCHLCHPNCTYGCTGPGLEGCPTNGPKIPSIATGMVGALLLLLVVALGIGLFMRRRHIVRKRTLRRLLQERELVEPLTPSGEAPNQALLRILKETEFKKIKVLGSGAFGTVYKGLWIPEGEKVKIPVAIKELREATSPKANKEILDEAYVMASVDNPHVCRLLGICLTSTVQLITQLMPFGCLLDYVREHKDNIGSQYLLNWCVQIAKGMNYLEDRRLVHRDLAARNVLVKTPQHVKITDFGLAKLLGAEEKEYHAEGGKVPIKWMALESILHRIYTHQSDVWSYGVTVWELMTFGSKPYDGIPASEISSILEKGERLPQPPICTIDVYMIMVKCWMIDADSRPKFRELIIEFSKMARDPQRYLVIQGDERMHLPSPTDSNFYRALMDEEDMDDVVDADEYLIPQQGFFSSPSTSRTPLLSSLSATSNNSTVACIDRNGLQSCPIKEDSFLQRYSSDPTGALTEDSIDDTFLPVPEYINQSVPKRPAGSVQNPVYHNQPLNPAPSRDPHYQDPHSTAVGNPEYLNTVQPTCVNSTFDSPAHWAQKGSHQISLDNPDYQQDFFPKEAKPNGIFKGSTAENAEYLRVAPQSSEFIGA
# EXPERIMENTAL_DETAILS: Inhibition of wild-type EGFR phosphorylation in human A431 cells preincubated for 1 hr followed by EGF stimulation measured after 45 mins by ELISA
# Format: cell-based
PROPERTY_MEASURED: IC50 (µM)

>>> reported_measurement("C=CC(=O)Nc1cccc(NC(=O)Nc2ccnc(Nc3ccc(N4CCC(N5CCOCC5)CC4)cc3OC)n2)c1")
6.46
>>> reported_measurement("C=CC(=O)Nc1cccc(NC(=O)Nc2ccnc(Nc3ccc(N4CCC(N5CCN(C)CC5)CC4)cc3OC)n2)c1")
2.34
>>> reported_measurement("C=CC(=O)Nc1cccc(NC(=O)Nc2ccnc(Nc3ccc(N(C)CCN(C)C)cc3OC)n2)c1")
1.7
>>> reported_measurement("C=CC(=O)Nc1cccc(Oc2nc(Nc3ccc(N4CCN(C(C)=O)CC4)cc3OC)ncc2C(F)(F)F)c1")
1.03
>>> reported_measurement("C=CC(=O)Nc1cccc(NC(=O)Nc2ccnc(Nc3ccc(N4CCC(N(C)C)CC4)cc3OC)n2)c1")
1.54
>>> reported_measurement("C=CC(=O)Nc1cccc(NC(=O)Nc2nc(Nc3ccc(N4CCC(N5CCOCC5)CC4)cc3OC)ncc2Cl)c1")
2.21
>>> reported_measurement("C=CC(=O)Nc1cccc(NC(=O)Nc2ccnc(Nc3ccc(C4CCN(C)CC4)cc3OC)n2)c1")
5

###

# EXPERIMENTAL_TARGET: Epidermal growth factor receptor (Homo sapiens, UniProt P00533, L858R/T790M)
# Sequence (P00533 25-1210 T790M/L858R limits assumed): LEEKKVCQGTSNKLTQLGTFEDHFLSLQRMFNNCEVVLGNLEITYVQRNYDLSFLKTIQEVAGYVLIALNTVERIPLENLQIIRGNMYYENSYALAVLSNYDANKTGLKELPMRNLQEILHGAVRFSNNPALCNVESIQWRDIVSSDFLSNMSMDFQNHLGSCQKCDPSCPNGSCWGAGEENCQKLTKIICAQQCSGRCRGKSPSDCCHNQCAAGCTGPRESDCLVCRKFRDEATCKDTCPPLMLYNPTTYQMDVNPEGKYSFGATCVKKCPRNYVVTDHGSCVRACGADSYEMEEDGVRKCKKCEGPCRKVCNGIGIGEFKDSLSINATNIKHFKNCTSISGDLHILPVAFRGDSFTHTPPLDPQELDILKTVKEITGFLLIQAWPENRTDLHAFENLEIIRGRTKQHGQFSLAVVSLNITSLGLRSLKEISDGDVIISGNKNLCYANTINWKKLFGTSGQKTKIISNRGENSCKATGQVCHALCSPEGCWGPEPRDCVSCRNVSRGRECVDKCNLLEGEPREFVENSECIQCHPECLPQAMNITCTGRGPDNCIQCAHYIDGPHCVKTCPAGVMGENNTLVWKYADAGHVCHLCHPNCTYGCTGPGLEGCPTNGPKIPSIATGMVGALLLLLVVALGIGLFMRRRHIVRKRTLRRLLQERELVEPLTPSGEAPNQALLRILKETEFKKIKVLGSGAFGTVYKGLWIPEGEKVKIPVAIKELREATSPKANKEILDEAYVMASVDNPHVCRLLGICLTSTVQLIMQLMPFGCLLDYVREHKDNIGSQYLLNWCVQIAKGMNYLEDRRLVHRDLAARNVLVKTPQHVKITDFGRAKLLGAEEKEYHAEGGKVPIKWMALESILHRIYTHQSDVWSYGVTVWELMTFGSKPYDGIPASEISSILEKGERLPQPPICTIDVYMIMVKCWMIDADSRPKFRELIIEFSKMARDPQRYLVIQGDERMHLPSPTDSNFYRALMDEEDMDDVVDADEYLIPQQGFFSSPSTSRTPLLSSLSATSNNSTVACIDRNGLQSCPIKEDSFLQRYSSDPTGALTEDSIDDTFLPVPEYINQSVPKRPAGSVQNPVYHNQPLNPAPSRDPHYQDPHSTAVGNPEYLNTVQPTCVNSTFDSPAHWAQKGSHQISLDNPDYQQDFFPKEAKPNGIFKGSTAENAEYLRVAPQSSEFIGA
# EXPERIMENTAL_DETAILS: Inhibition of recombinant human GST-tagged EGFR L858R/T790M mutant cytoplasmic domain (668 to 1210 residues) expressed in baculovirus expression system using tyrosine04 peptide as substrate after 60 mins in presence of ATP by Z-LYTE assay
PROPERTY_MEASURED: IC50 (nM)

>>> reported_measurement("C=CC(=O)Nc1cccc(NC(=O)Nc2ccnc(Nc3ccc(N4CCN(C)CC4)cc3OC)n2)c1")
17
>>> reported_measurement("C=CC(=O)Nc1cccc(NC(=O)Nc2ccnc(Nc3ccc(N4CCOCC4)cc3)n2)c1")
87
>>> reported_measurement("C=CC(=O)Nc1cccc(NC(=O)Nc2ccnc(Nc3ccc(N4CCC(N5CCN(C)CC5)CC4)cc3OC)n2)c1")
5
>>> reported_measurement("C=CC(=O)Nc1cccc(NC(=O)Nc2ccnc(Nc3ccc(N(C)CCN(C)C)cc3OC)n2)c1")
19

###

# EXPERIMENTAL_TARGET: Epidermal growth factor receptor (Homo sapiens)
# EXPERIMENTAL_DETAILS: Inhibition of recombinant human GST-tagged wild-type EGFR cytoplasmic domain (668 to 1210 residues) expressed in baculovirus expression system using tyrosine04 peptide as substrate after 60 mins in presence of ATP by Z-LYTE assay
Recorded IC50, one value per entry.
PROPERTY_MEASURED: IC50 (nM)

>>> reported_measurement("C=CC(=O)Nc1cccc(NC(=O)Nc2ccnc(Nc3ccc(N(C)C)cc3)n2)c1")
462
>>> reported_measurement("C=CC(=O)Nc1cccc(NC(=O)Nc2ccnc(Nc3ccc(N4CCN(C)CC4)cc3)n2)c1")
143
>>> reported_measurement("C=CC(=O)Nc1cccc(NC(=O)Nc2ccnc(Nc3ccc(N4CCC(N5CCN(C)CC5)CC4)cc3OC)n2)c1")
80
>>> reported_measurement("C=CC(=O)Nc1cccc(NC(=O)Nc2ccnc(Nc3ccc(N(CC)CC)cc3OC)n2)c1")
183

###

Quick reference for pIC50 among some compounds
# EXPERIMENTAL_TARGET: Epidermal growth factor receptor (Homo sapiens, UniProt P00533, L858R/T790M)
# EXPERIMENTAL_DETAILS: Inhibition of EGFR L858R/T790M mutant phosphorylation in human NCI-H1975 cells after 1 hr by ELISA
# Format: cell-based
pIC50: −log10 of the molar value.
PROPERTY_MEASURED: pIC50

>>> reported_measurement("C=CC(=O)Nc1cccc(NC(=O)Nc2ccnc(Nc3ccc(N4CCOCC4)cc3OC)n2)c1")
6.66
>>> reported_measurement("C=CC(=O)Nc1cccc(NC(=O)Nc2ccnc(Nc3ccc(N4CCC(N5CCOCC5)CC4)cc3OC)n2)c1")
7.39
>>> reported_measurement("C=CC(=O)Nc1cccc(NC(=O)Nc2ccnc(Nc3ccc(N(C)CCN(C)C)cc3OC)n2)c1")
6.37
>>> reported_measurement("C=CC(=O)Nc1cccc(NC(=O)Nc2ccnc(Nc3ccc(C4CCN(C)CC4)cc3OC)n2)c1")
6.89
>>> reported_measurement("C=CC(=O)Nc1cccc(NC(=O)Nc2ccnc(Nc3ccc(N4CCN(CCF)CC4)cc3OC)n2)c1")
6.29

###

pIC50 listing for selected compounds.
# EXPERIMENTAL_TARGET: Epidermal growth factor receptor (Homo sapiens, UniProt P00533, L858R/T790M)
# EXPERIMENTAL_DETAILS: Inhibition of EGFR L858R/T790M mutant phosphorylation in human NCI-H1975 cells after 1 hr by ELISA
# Assay type: cell-based
pIC50: −log10 of the molar value.
PROPERTY_MEASURED: pIC50

>>> reported_measurement("C=CC(=O)Nc1cccc(NC(=O)Nc2nc(Nc3ccc(N4CCC(N5CCOCC5)CC4)cc3OC)ncc2Cl)c1")
6.88
>>> reported_measurement("C=CC(=O)Nc1cccc(Oc2nc(Nc3ccc(N4CCN(C(C)=O)CC4)cc3OC)ncc2C(F)(F)F)c1")
6.88
>>> reported_measurement("C=CC(=O)Nc1cccc(NC(=O)Nc2ccnc(Nc3ccc(OC)cc3OC)n2)c1")
6.41

###

IC50 values by entry
# Test system: A-431
# EXPERIMENTAL_DETAILS: Antiproliferative activity against human A431 cells harboring wild-type EGFR after 72 hrs by MTT assay
# Type: functional, cell-based
# MEASUREMENT_CONDITIONS: A-431, 72 h
PROPERTY_MEASURED: IC50

>>> reported_measurement("C=CC(=O)Nc1cccc(NC(=O)Nc2ccnc(Nc3ccc(N(CC)CC)cc3OC)n2)c1")
"> 10 µM"
>>> reported_measurement("C=CC(=O)Nc1cccc(NC(=O)Nc2ccnc(Nc3ccc(N4CCC(N5CCOCC5)CC4)cc3OC)n2)c1")
"> 10 µM"
>>> reported_measurement("C=CC(=O)Nc1cccc(NC(=O)Nc2ccnc(Nc3ccc(C4CCN(C)CC4)cc3OC)n2)c1")
"> 10 µM"
>>> reported_measurement("C=CC(=O)Nc1cccc(NC(=O)Nc2ccnc(Nc3ccc(N4CCOCC4)cc3)n2)c1")
"> 10 µM"

###

List of IC50 values.
# EXPERIMENTAL_TARGET: Epidermal growth factor receptor (Homo sapiens, UniProt P00533, L858R/T790M)
# EXPERIMENTAL_DETAILS: Inhibition of recombinant human GST-tagged EGFR L858R/T790M mutant cytoplasmic domain (668 to 1210 residues) expressed in baculovirus expression system using tyrosine04 peptide as substrate after 60 mins in presence of ATP by Z-LYTE assay
PROPERTY_MEASURED: IC50

>>> reported_measurement("C=CC(=O)Nc1cccc(NC(=O)N(C)c2ccnc(Nc3ccc(N4CCN(C)CC4)cc3OC)n2)c1")
"> 1000 nM"
>>> reported_measurement("C=CC(=O)Nc1cccc(NC(=O)C(C)(C)c2ccnc(Nc3ccc(N4CCN(C)CC4)cc3OC)n2)c1")
"> 1000 nM"
>>> reported_measurement("C=CC(=O)Nc1cccc(NC(=O)C2(C(=O)Nc3ccnc(Nc4ccc(N5CCN(C)CC5)cc4OC)n3)CC2)c1")
"> 1000 nM"

###

# pIC50 values compiled below
# EXPERIMENTAL_TARGET: Epidermal growth factor receptor (Homo sapiens, UniProt P00533)
# EXPERIMENTAL_DETAILS: Inhibition of recombinant human GST-tagged wild-type EGFR cytoplasmic domain (668 to 1210 residues) expressed in baculovirus expression system using tyrosine04 peptide as substrate after 60 mins in presence of ATP by Z-LYTE assay
pIC50: −log10 of the molar value.
PROPERTY_MEASURED: pIC50

>>> reported_measurement("C=CC(=O)Nc1cccc(NC(=O)Nc2ccnc(Nc3ccc(C4CCN(C)CC4)cc3)n2)c1")
"< 6.00"
>>> reported_measurement("C=CC(=O)Nc1cccc(NC(=O)Nc2ccnc(Nc3ccc(C(=O)N4CCOCC4)cc3OC)n2)c1")
"< 6.00"
>>> reported_measurement("C=CC(=O)Nc1cccc(NC(=O)N(C)c2ccnc(Nc3ccc(N4CCN(C)CC4)cc3OC)n2)c1")
"< 6.00"

Values compiled from ChEMBL document CHEMBL4219138.
